Target: T1, human SIRPγ (huSIRPγ) (human, UniProt Q9P1W8 29-360, limits assumed, biotinylated in the SPR assay)
T1 construct: Coated on the plate in ELISA, biotinylated and captured in SPR
T1 sequence (Q9P1W8 29-360 limits assumed): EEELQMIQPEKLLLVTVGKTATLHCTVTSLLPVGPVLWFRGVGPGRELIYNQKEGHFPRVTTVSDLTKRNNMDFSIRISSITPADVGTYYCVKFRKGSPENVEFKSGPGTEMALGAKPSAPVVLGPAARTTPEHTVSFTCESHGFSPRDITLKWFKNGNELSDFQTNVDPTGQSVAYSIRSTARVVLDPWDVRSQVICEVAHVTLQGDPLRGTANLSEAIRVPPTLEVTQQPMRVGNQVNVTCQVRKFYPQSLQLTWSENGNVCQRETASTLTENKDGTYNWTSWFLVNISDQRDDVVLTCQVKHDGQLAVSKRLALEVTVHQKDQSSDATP
Experiment: ELISA, antigen coated
Assay Metric: EC50

Notebook: anti-SIRPα antibody 4 (antibody, human IgG1, kappa, L234A L235A, V domains shown, Chimeric: rabbit variable regions on human IgG1 LALA / kappa; also called chimeric antibody 4) VH: QSVEESGGRLGTPGTPLTLTCTVSGFSLSSYVMGWFRQAPGKGLEYIGIISSSGSPYYASWVNGRFTISKTSTTMDLKMNSPTTEDTATYFCARVGPLGVDYFNIWGPGTLVTVSL VL: DIVMTQTPSSVEAAVGGTVTIKCQAGQSINSYLAWYQQKPGQRPKLLIYYASTLESGVPSRFKGSGSGTDYTLTISDLESADAATYYCQSWHYISRSYAFGGGTEVVVKR , EC50 read as > 100 µg/mL

Notebook: anti-SIRPα antibody 8 (antibody, human IgG1, kappa, L234A L235A, V domains shown, Rabbit variable regions on human IgG1 LALA / kappa) VH: QSLEESGGRLVTPGTPLTLTCTASGVDLSNYAMGWVRQAPGKGLEWIGIIYAGGSTSYATWAKGRFTISKTSTTMDLKMTSPTTEDTATYFCARHRSDGYDYFHLWGPGTLVTVSL VL: AIDMTQTPASVSEPVGGTVTIKCQASQSISSWLAWYQQKPGQRPKLLIYDASKLASGVPSRFSGSGSGTEFTLTISGVQSDDAAAYYCQQGYAVSYVENIFGGGTEVVVKR , EC50 read as > 100 µg/mL

Notebook: anti-SIRPα antibody 5 (antibody, human IgG1, kappa, L234A L235A, V domains shown, Rabbit variable regions on human IgG1 LALA / kappa) VH: QSVEESGGRLVTPGTPLTLTCTVSGFSLSSYVMGWFRQAAGKGLEYIGYINADGSPYYATWVNGRFTISKTPTTMDLKINSPTTEDTATYFCARVGPLGVDYFNIWGPGTLVTVSL VL: DIVMTQTPASVEAAVGGTVTIKCQASQSINRYLTWYQQKPGQRPKLLIYYASTLESGVPSRFEGSGSGTDYTLTISDLESADAATYYCQSYYYISRTYAFGGGTEVVVKR , EC50 read as > 100 µg/mL

Notebook: 12C4huIgG1LALA (antibody, V domains shown, HAVT20 leader left out; also called 12C4LALA; huIgG112C4LALA) VH: EVKLEESGGGLMQPGGSMKLSCVASGFTFSNYWMNWVRQSPEKGLEWVAEIRLKSNNYATHYAESVKGRFTISRDDSKSSVYLQMNNLRAEDTGIYYCIRDYDYDAYFDYWGQGTTLTVSS VL: DIVLTQSPASLAVSLGQRATISCRASKSVSTSGYNYMYWYQQKPGQPPKLLIYLASNLESGVPARFSGSGSGTDFTLNIHPVEEEDAATYYCQHSGELPYTFGGGTKLEIKR , EC50 read as 0.006 µg/mL

Notebook: anti-SIRPα antibody 6 (antibody, human IgG1, kappa, L234A L235A, V domains shown, Rabbit variable regions on human IgG1 LALA / kappa) VH: QSVEESGGRLVTPGTPLTLTCTVSGIDLSSYTMTWVRQAPGKGLEWIGIIYAGGSTAYASWAKGRFTISKTSTTVDLKITSPTTEDTATYFCARSSSDGYDYFNIWGPGTLVTVSL VL: GVVMTQTPSSVSAAVGGTVTINCQASQSIGSWLAWYQQKPGQPPKLLIYQASKLASGVPSRFSGRGSGTHFTLTISDVQSDDAATYYCQQTVTAASNVDNAFGGGTEVVVKR , EC50 read as > 100 µg/mL
